Target: Cellular tumor antigen p53 (Homo sapiens) (UniProt P04637)
Sequence (P04637 whole entry, looked up): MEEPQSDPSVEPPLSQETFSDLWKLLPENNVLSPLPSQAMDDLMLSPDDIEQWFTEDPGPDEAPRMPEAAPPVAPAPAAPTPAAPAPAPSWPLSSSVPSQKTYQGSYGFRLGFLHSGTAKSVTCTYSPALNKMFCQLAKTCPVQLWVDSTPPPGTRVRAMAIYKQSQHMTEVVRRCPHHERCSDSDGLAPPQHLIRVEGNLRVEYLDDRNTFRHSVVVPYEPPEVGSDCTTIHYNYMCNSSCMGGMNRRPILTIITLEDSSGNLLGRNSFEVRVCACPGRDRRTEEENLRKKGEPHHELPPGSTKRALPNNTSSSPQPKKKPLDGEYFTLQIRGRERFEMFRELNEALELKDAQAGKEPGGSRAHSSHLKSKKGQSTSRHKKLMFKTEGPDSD
Assay: Primary qHTS for small molecule compounds that upregulate eGFP-tagged delta133p53alpha (in N-terminal) cells. (AID 2060322);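 further: cells pre-induced with doxycycline then dosed without doxycycline; series mostly up to about 56 µM; 0% = DMSO vehicle and 100% = reference activator; nearly all actives have a fitted effect of over 75% in size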
Conditions: NCI-H358 eGFP-delta133p53alpha fluorescence, 24 h; hits give high values
Records with an inconclusive call do not appear.
Measured property: activation (%)
# value in %; strip the unit string

Known results for compounds:
| Compound | Units of measure | Readout value |
| --- | --- | --- |
| CNCC(=O)c1ccc(O)c(O)c1 | % | 8.47 |
| COP(=S)(OC)Oc1cc(Cl)c(Cl)cc1Cl | % | -17.5 |
| CCCN1CCO[C@H]2c3cc(O)ccc3OC[C@@H]21 | % | 4.46 |
| Cc1ccc(-n2nccn2)c(C(=O)N2CCN(c3nc4cc(Cl)ccc4o3)CCC2C)c1 (stereo not drawn) | % | -12.4 |
| CN1C(=O)N(c2ccc(C#N)c(C(F)(F)F)c2)C(=O)[C@]1(CO)c1ccccc1 | % | 17 |
| CC(=O)N1N=C(c2ccc(N)cc2)c2cc3c(cc2C[C@H]1C)OCO3 | % | -0.955 |
| O=C(NC1CN2CCC1CC2)c1cc2ccoc2cn1 (stereo not drawn) | % | -11.8 |
| C=CCOC(Cn1ccnc1)c1ccc(Cl)cc1Cl (stereo not drawn) | % | 6.69 |
| C[C@]12CC[C@@H]3c4ccc(OC(=O)N(CCCl)CCCl)cc4CC[C@H]3[C@@H]1CC[C@@H]2O | % | 11.9 |
| c1ccc2cc(CC3=NCCN3)ccc2c1 | % | -13.6 |

Input: Test system Cellular tumor antigen p53 (Homo sapiens) (UniProt P04637); read-out activation; what value for COC1=CC(C)=C[C@@H](C)[C@@H](O)[C@@H](C)CC(C)=CC=C[C@H](OC)[C@H]([C@@H](C)[C@@H](O)[C@H](C)[C@@]2(O)C[C@@H](O)[C@H](C)[C@@H](C(C)C)O2)OC1=O ?
Output: 6.87

Input: Now give it for C[C@]12CC[C@H](O[C@@H]3O[C@H](CO)[C@@H](O)[C@H](O)[C@H]3O[C@@H]3O[C@H](CO)[C@@H](O)[C@H](O)[C@H]3O)CC1=CC[C@@H]1[C@@H]2CC[C@]2(C)[C@@H](C3=CC(=O)OC3)CC[C@]12O too.
Output: 8.93

Input: Queued: c1cc2ccc3cccc4ccc(c1)c2c34
Output: 0

Input: // repeat for CN1C(=O)[C@@H](Cc2c[nH]c3ccccc23)N=C(c2ccccc2F)c2ccccc21 and report
Output: 15.8

Input: Do the same for O=C1C[C@@H]2OCC=C3CN4CC[C@]56c7ccccc7N1[C@H]5[C@H]2[C@H]3C[C@H]46 please
Output: -3.57

Input: Okay, and CC1(C)CC/C(=C/c2ccc(Cl)cc2)C1(O)Cn1cncn1 (stereo not drawn) ?
Output: 2.51

Input: Try this compound next: NCc1cccnc1
Output: 6.21

Input: Then this compound: COc1cc2cc(c1Cl)N(C)C(=O)C[C@H](OC(=O)C(C)C)[C@]1(C)O[C@H]1[C@H](C)[C@@H]1C[C@@](O)(NC(=O)O1)[C@H](OC)C=CC=C(C)C2
Output: 0.447

Input: Repeat for the following compound: C=C[C@@H]1CN2CCC1C[C@H]2[C@H](O)c1ccnc2ccccc12 (stereo partly drawn)
Output: -4.83

Input: // repeat for NCc1cc(=O)[nH]o1 and report
Output: 11.2

Input: Entry to check: Oc1ccc(Cl)cc1
Output: -7.34

Input: Quick one: CCC(C)C1NC(=O)C(C(C)=O)=C1O (stereo not drawn)
Output: 13

Input: Next: CC(=O)OC1CC(O)C(C)(C)C2CC(OC(C)=O)C3(C)C(CCC4(C)C(c5ccoc5)C(=O)C5OC543)C12C (stereo not drawn)
Output: -13

Input: Proceed to c1ccc2c(N3CCNCC3)cccc2c1
Output: -14.7

Input: # repeat for Cc1ccc(Cn2nc(C(=O)N[C@@H]3C(C)(C)[C@@H]4CC[C@@]3(C)C4)cc2-c2ccc(Cl)c(C)c2)cc1
Output: -9.82

Input: And CC(=O)C1CCOC1=O (stereo not drawn) ?
Output: -9.21

Input: Proceed to C[C@]12CC[C@H](O[C@@H]3O[C@H](CO)[C@@H](O)[C@H](O)[C@H]3O)CC1=CC[C@@H]1C2CC[C@]2(C)[C@@H](C3=CC(=O)OC3)CC[C@]12O (stereo partly drawn)
Output: 0.763

Input: # repeat for C#CCOC(C(=O)OCCN(C)C)(c1ccccc1)c1ccccc1
Output: -6.21

Input: Next up: C[C@]12Cc3nonc3C[C@@H]1CC[C@@H]1[C@@H]2CC[C@@]2(C)[C@H]1CC[C@]2(C)O
Output: 7.34

Input: Moving on to CC(C)(O)C(Cl)(Cl)Cl
Output: -9.6

Input: Now the same for O=C1N[C@@H](Cc2ccccc2)CN2CCCC[C@@H]12
Output: -9.16

Input: Note, next up: C[N@@+]1(CC2CC2)CC[C@]23c4c5ccc(O)c4O[C@H]2C(=O)CC[C@@]3(O)[C@H]1C5
Output: -5.67
